For Streptococcus pyogenes EES61, measured MIC is reported for the entries below.

Compound Structure String	Reported Measurement
CC[C@H]1OC(=O)[C@H](C)C(=O)[C@H](C)[C@@H](O[C@@H]2O[C@H](C)C[C@H](N(C)C)[C@H]2O)[C@](C)(OCC#Cc2ccc(-c3cscn3)s2)C[C@@H](C)C(=O)[C@H](C)[C@H]2NC(=O)O[C@@]21C	0.02 µg/mL

Consider the record given below.
// recorded MIC for "CC[C@H]1OC(=O)[C@H](C)C(=O)[C@H](C)[C@@H](O[C@@H]2O[C@H](C)C[C@H](N(C)C)[C@H]2O)[C@](C)(OCC#Cc2ccc(-c3cncc(C(N)=O)c3)s2)C[C@@H](C)C(=O)[C@H](C)[C@H]2NC(=O)O[C@@]21C" : 0.02 µg/mL

----------
For Escherichia coli DC-2, measured MIC is reported for the entries below.
Please give a number only; it is taken to be in µg/mL.

Compound Structure String	Quantity Unit	MIC
CC[C@H]1OC(=O)[C@H](C)C(=O)[C@H](C)[C@@H](O[C@@H]2O[C@H](C)C[C@H](N(C)C)[C@H]2O)[C@](C)(OC/C=C/c2cncc(-c3ncccn3)c2)C[C@@H](C)C(=O)[C@H](C)[C@H]2NC(=O)O[C@@]21C	µg/mL	100
CC[C@H]1OC(=O)[C@H](C)C(=O)[C@H](C)[C@@H](O[C@@H]2O[C@H](C)C[C@H](N(C)C)[C@H]2O)[C@](C)(OCC#Cc2ccc(-c3ccsc3)s2)C[C@@H](C)C(=O)[C@H](C)[C@H]2NC(=O)O[C@@]21C	µg/mL	100
CC[C@H]1OC(=O)[C@H](C)C(=O)[C@H](C)[C@@H](O[C@@H]2O[C@H](C)C[C@H](N(C)C)[C@H]2O)[C@](C)(OC/C=C/c2ccc(-c3cnccn3)s2)C[C@@H](C)C(=O)[C@H](C)[C@H]2NC(=O)O[C@@]21C	µg/mL	25

Here "CC[C@H]1OC(=O)[C@H](C)C(=O)[C@H](C)[C@@H](O[C@@H]2O[C@H](C)C[C@H](N(C)C)[C@H]2O)[C@](C)(OC/C=C/c2ccc(-c3cncnc3)s2)C[C@@H](C)C(=O)[C@H](C)[C@H]2NC(=O)O[C@@]21C" was tested on Escherichia coli DC-2, and its MIC came to 100

Here "CC[C@H]1OC(=O)[C@H](C)C(=O)[C@H](C)[C@@H](O[C@@H]2O[C@H](C)C[C@H](N(C)C)[C@H]2O)[C@](C)(OC/C=C/c2nc(-c3cccnc3)cs2)C[C@@H](C)C(=O)[C@H](C)[C@H]2NC(=O)O[C@@]21C" was tested on Escherichia coli DC-2, and its MIC came to 25

----------
Recorded log10(MIC) for the following compounds
# Tested on: Streptococcus Pneumonia 5649
Hello, just confirming the data are log10 of MIC with units of µg/mL.

These solved cases illustrate the format of a correct answer.
Compound	Readout Name	Reported Measurement
CC[C@H]1OC(=O)[C@H](C)C(=O)[C@H](C)[C@@H](O[C@@H]2O[C@H](C)C[C@H](N(C)C)[C@H]2O)[C@](C)(OCC#Cc2ccc(-c3nccs3)s2)C[C@@H](C)C(=O)[C@H](C)[C@H]2NC(=O)O[C@@]21C	log10(MIC)	-0.60
CC[C@H]1OC(=O)[C@H](C)C(=O)[C@H](C)[C@@H](O[C@@H]2O[C@H](C)C[C@H](N(C)C)[C@H]2O)[C@](C)(OC/C=C/c2cnc(-c3cccnc3)s2)C[C@@H](C)C(=O)[C@H](C)[C@H]2NC(=O)O[C@@]21C	log10(MIC)	-0.60
CC[C@H]1OC(=O)[C@H](C)C(=O)[C@H](C)[C@@H](O[C@@H]2O[C@H](C)C[C@H](N(C)C)[C@H]2O)[C@](C)(OCC#Cc2ccc(-c3cccc(C)c3)s2)C[C@@H](C)C(=O)[C@H](C)[C@H]2NC(=O)O[C@@]21C	log10(MIC)	-0.30
CC[C@H]1OC(=O)[C@H](C)[C@@H](O[C@H]2C[C@@](C)(OC)[C@@H](O)[C@H](C)O2)[C@H](C)[C@@H](O[C@@H]2O[C@H](C)C[C@H](N(C)C)[C@H]2O)[C@](C)(O)C[C@@H](C)C(=O)[C@H](C)[C@@H](O)[C@]1(C)O [Ery. A, Erythromycin A, reference compound]	log10(MIC)	1.20
CC[C@H]1OC(=O)[C@H](C)C(=O)[C@H](C)[C@@H](O[C@@H]2O[C@H](C)C[C@H](N(C)C)[C@H]2O)[C@](C)(OC/C=C/c2ccc(-c3ccc(Cl)c(Cl)c3)s2)C[C@@H](C)C(=O)[C@H](C)[C@H]2NC(=O)O[C@@]21C	log10(MIC)	0.00
CC[C@H]1OC(=O)[C@H](C)C(=O)[C@H](C)[C@@H](O[C@@H]2O[C@H](C)C[C@H](N(C)C)[C@H]2O)[C@](C)(OCC#Cc2ccc(-c3ccc(F)cc3)s2)C[C@@H](C)C(=O)[C@H](C)[C@H]2NC(=O)O[C@@]21C	log10(MIC)	0.60
CC[C@H]1OC(=O)[C@H](C)C(=O)[C@H](C)[C@@H](O[C@@H]2O[C@H](C)C[C@H](N(C)C)[C@H]2O)[C@](C)(OC/C=C/c2cnc(-c3cnccn3)s2)C[C@@H](C)C(=O)[C@H](C)[C@H]2NC(=O)O[C@@]21C	log10(MIC)	-0.60

Consider the record given below.
Here "CC[C@H]1OC(=O)[C@H](C)C(=O)[C@H](C)[C@@H](O[C@@H]2O[C@H](C)C[C@H](N(C)C)[C@H]2O)[C@](C)(OCC#Cc2ccc(-c3cnc4ccccc4n3)s2)C[C@@H](C)C(=O)[C@H](C)[C@H]2NC(=O)O[C@@]21C" was tested on Streptococcus Pneumonia 5649, and its log10(MIC) came to -0.60

----------
For Micrococcus luteus ATCC 9341, measured MIC is reported for the entries below.
Please give a number only; it is taken to be in µg/mL.

Compound Structure String	Quantity Unit	MIC
CC[C@H]1OC(=O)[C@H](C)C(=O)[C@H](C)[C@@H](O[C@@H]2O[C@H](C)C[C@H](N(C)C)[C@H]2O)[C@](C)(OC/C=C/c2ccc(-c3cccs3)s2)C[C@@H](C)C(=O)[C@H](C)[C@H]2NC(=O)O[C@@]21C	µg/mL	0.02

Consider the record given below.
// recorded MIC for "CC[C@H]1OC(=O)[C@H](C)C(=O)[C@H](C)[C@@H](O[C@@H]2O[C@H](C)C[C@H](N(C)C)[C@H]2O)[C@](C)(OCC#Cc2ccc(-c3nccn3C)s2)C[C@@H](C)C(=O)[C@H](C)[C@H]2NC(=O)O[C@@]21C" : 0.01

----------
For Streptococcus Pneumonia 5649, measured MIC is reported for the entries below.

These solved cases illustrate the format of a correct answer.
Compound	MIC
CC[C@H]1OC(=O)[C@H](C)C(=O)[C@H](C)[C@@H](O[C@@H]2O[C@H](C)C[C@H](N(C)C)[C@H]2O)[C@](C)(OCC#Cc2ccc(-c3ccc(C=O)o3)cc2)C[C@@H](C)C(=O)[C@H](C)[C@H]2NC(=O)O[C@@]21C [Example 24]	0.25 µg/mL
CC[C@H]1OC(=O)[C@H](C)C(=O)[C@H](C)[C@@H](O[C@@H]2O[C@H](C)C[C@H](N(C)C)[C@H]2O)[C@](C)(OC/C=C/c2ncc(-c3cccnc3)s2)C[C@@H](C)C(=O)[C@H](C)[C@H]2NC(=O)O[C@@]21C [Example 54]	0.25 µg/mL

Here CC[C@H]1OC(=O)[C@H](C)C(=O)[C@H](C)[C@@H](O[C@@H]2O[C@H](C)C[C@H](N(C)C)[C@H]2O)[C@](C)(OC/C=C/c2cncc(-c3ncccn3)c2)C[C@@H](C)C(=O)[C@H](C)[C@H]2NC(=O)O[C@@]21C [Example 46] was tested on Streptococcus Pneumonia 5649, and its MIC came to 0.5 µg/mL

Here CC[C@H]1OC(=O)[C@H](C)C(=O)[C@H](C)[C@@H](O[C@@H]2O[C@H](C)C[C@H](N(C)C)[C@H]2O)[C@](C)(OC/C=C/c2ccc3ncc(-c4ccco4)cc3c2)C[C@@H](C)C(=O)[C@H](C)[C@H]2NC(=O)O[C@@]21C [Example 39] was tested on Streptococcus Pneumonia 5649, and its MIC came to 0.25 µg/mL

----------
For Staphylococcus aureus A-5278, measured MIC is reported for the entries below.

Molecule	Reported Measurement
CC[C@H]1OC(=O)[C@H](C)C(=O)[C@H](C)[C@@H](O[C@@H]2O[C@H](C)C[C@H](N(C)C)[C@H]2O)[C@](C)(OCC#Cc2ccc(-c3cncc(C#N)c3)s2)C[C@@H](C)C(=O)[C@H](C)[C@H]2NC(=O)O[C@@]21C [Example 8]	> 100 µg/mL

Consider the record given below.
Here CC[C@H]1OC(=O)[C@H](C)C(=O)[C@H](C)[C@@H](O[C@@H]2O[C@H](C)C[C@H](N(C)C)[C@H]2O)[C@](C)(OC/C=C/c2cncc(-c3cncnc3)c2)C[C@@H](C)C(=O)[C@H](C)[C@H]2NC(=O)O[C@@]21C [Example 45] was tested on Staphylococcus aureus A-5278, and its MIC came to > 100 µg/mL
